Target: trypsin (Bos taurus, UniProt P00760)
Construct: purchased Roche Corp (Indianapolis, USA)
Sequence (P00760 24-246): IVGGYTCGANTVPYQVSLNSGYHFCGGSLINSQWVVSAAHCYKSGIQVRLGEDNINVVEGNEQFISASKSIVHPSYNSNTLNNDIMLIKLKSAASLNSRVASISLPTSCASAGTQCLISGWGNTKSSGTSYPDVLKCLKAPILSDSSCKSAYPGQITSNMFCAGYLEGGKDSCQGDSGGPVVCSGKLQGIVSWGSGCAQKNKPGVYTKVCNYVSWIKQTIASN
Experiment: Degradation mediated by trypsin (HPLC)
Type: in vitro ADME
Settings: trypsin (119 ng/μL) in Tris-HCl buffer, pH 8.5; 119 μg/ml trypsin, peptide 0.79 mM, 37 °C, 5 h; read-out: peptide intact after incubation with trypsin
Text: The degradation of peptides mediated by trypsin can be effectively monitored by HPLC analysis. […] The detector wavelength was set at 214 nm.
readout: remaining at 5 h, 0.79 mM

// query remaining at 5 h, 0.79 mM value for entry CC[C@H](C)[C@H](NC(=O)[C@H](CCC(=O)O)NC(=O)[C@H](CCC(=O)O)NC(=O)[C@H](Cc1ccccc1)NC(=O)[C@H](CC(=O)O)NC(=O)CNC(=O)[C@H](CC(N)=O)NC(=O)CNC(=O)CNC(=O)CNC(=O)CNC(=O)[C@@H]1CCCN1C(=O)[C@H](CCCNC(=N)N)NC(=O)[C@@H]1CCCN1C(=O)[C@H](N)Cc1ccccc1)C(=O)N1CCC[C@H]1C(=O)N[C@@H](CCC(=O)O)C(=O)N[C@@H](CCC(=O)O)C(=O)N[C@@H](Cc1ccc(O)cc1)C(=O)N[C@@H](CC(C)C)C(=O)O [Hirulog-1, reference compound]
6%

Origin of the recorded values: paper PMC4585835
